method.summary: self-splicing fitness, log relative to wild type (ln ratio); higher = more splicing; Tetrahymena group I intron in knt gene, E. coli kanamycin selection, DiMSum; sequences stand for … in CUCUCU…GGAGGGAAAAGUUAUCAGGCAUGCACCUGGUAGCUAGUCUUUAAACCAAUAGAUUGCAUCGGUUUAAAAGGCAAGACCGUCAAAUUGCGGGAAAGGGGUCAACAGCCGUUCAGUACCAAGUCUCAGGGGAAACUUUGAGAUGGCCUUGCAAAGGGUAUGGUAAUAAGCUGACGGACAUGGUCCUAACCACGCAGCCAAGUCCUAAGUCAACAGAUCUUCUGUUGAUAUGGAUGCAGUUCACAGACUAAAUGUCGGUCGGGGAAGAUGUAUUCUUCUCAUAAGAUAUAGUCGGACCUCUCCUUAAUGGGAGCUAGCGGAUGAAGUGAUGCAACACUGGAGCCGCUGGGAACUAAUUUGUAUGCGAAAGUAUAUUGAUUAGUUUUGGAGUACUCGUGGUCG;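 note: selection with 25 µg/mL kanamycin versus none on LB agar overnight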
test.settings: 30 °C
attribute.measured: self-splicing fitness (ln)
Answer using only a numeral; do not append any unit.

query: self-splicing fitness (ln) lookup needed for `CAGAAGCAAUAUUACGUCUC` , thanks.
result: -1.79

query: If you can, please state the reported self-splicing fitness (ln) value of `AUAUAGCAAUAUUACGUCCA` .
result: -1.87

query: Value lookup for self-splicing fitness (ln); key = `CUACAGCAAUAUUACGAAGC`
result: -3.61

query: If you can, please state the reported self-splicing fitness (ln) value of `UCAUAGCAAUAUUACGUUCG` .
result: -1.03

query: Need self-splicing fitness (ln) of `CAUGAGCAAUAUUACGUCAG` , thanks.
result: -1.35

query: Param item = `GCUCAGCAAUAUUACGGUGU` ; retrieve measured self-splicing fitness (ln).
result: -1.3

---

method.summary: self-splicing fitness, log relative to wild type (ln ratio); higher = more splicing; Tetrahymena group I intron in knt gene, E. coli kanamycin selection, DiMSum; sequences stand for … in CUCUCU…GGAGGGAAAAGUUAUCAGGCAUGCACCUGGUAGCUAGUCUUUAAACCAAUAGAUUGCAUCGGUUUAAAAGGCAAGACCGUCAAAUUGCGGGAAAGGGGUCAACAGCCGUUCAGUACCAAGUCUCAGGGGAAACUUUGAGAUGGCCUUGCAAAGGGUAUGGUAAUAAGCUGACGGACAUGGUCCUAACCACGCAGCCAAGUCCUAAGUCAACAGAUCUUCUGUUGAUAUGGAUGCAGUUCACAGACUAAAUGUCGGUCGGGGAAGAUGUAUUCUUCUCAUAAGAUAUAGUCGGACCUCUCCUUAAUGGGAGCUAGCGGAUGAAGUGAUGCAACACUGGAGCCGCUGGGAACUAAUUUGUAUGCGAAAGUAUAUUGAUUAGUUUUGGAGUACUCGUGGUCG
test.settings: 30 °C
attribute.measured: self-splicing fitness (ln)
Number only, no unit.

query: Look at this sequence and give its reported self-splicing fitness (ln). `CCUCAGCAAUAUUACGUAAA`
result: -3.87

query: # self-splicing fitness (ln) lookup, item `ACAAAGCAAUAUUACGCCGG`
result: -0.52

query: // returns reported self-splicing fitness (ln) for input `GCUAAGCAAUAUUACGGUCU`
result: -0.772

query: Would you mind telling me what self-splicing fitness (ln) value was observed for `CGGAAGCAAUAUUACGAGCC` ?
result: -2.13

query: Give the measured self-splicing fitness (ln) of `GUACAGCAAUAUUACGCGGA` .
result: -2.49

query: I'd like to know its self-splicing fitness (ln). The sequence in question is `GUACAGCAAUAUUACGAACC`
result: -1.19

query: Request the reported self-splicing fitness (ln) associated with `UGGCAGCAAUAUUACGGAGA`
result: -2.9

query: Look at this sequence and give its reported self-splicing fitness (ln). `CCCCAGCAAUAUUACGAGUU`
result: -4.17

query: Reported self-splicing fitness (ln), sequence `UCGCAGCAAUAUUACGGGGC` : ____
result: -2.52

query: Find the recorded self-splicing fitness (ln) belonging to `UUACAGCAAUAUUACGACGG` and report it.
result: -0.531

query: Look up self-splicing fitness (ln) for this sequence: `GGGAAGCAAUAUUACGGCCA`
result: -0.752

query: Would you kindly share the measured self-splicing fitness (ln) for `CAGGAGCAAUAUUACGCCAG` ?
result: -2.75

query: Which self-splicing fitness (ln) is listed for `CCUUAGCAAUAUUACGCGGA` ?
result: -2.93

query: Field request: self-splicing fitness (ln) | item: `UUAAAGCAAUAUUACGAGCA`
result: -0.0954

query: Need self-splicing fitness (ln) of `CUCGAGCAAUAUUACGGCAC` , thanks.
result: -3.63

query: Which measured self-splicing fitness (ln) value corresponds to `AGACAGCAAUAUUACGUUAG` ?
result: -3.69

query: Which self-splicing fitness (ln) reading was recorded for the sequence `ACCCAGCAAUAUUACGAGUG` ?
result: -1.74

query: Which self-splicing fitness (ln) value belongs to `UGUGAGCAAUAUUACGGUAG` ?
result: -2.45

query: Give its self-splicing fitness (ln) value. Item: `GGGUAGCAAUAUUACGUUUC`
result: -2.16

query: So what does the record say about self-splicing fitness (ln) for `AGAAAGCAAUAUUACGGCGC` ?
result: -0.688

query: Name the recorded self-splicing fitness (ln) for `UGCCAGCAAUAUUACGGCAA` .
result: -1.4

query: Fill blank: measured self-splicing fitness (ln) of the sequence `AAAAAGCAAUAUUACGAAGA` is ____.
result: -1.96

query: I'd like to know its self-splicing fitness (ln). The sequence in question is `GCGCAGCAAUAUUACGCUCG`
result: -3.65

query: Reported self-splicing fitness (ln), sequence `CGUCAGCAAUAUUACGAUGA` : ____
result: -0.998

query: Quick one: self-splicing fitness (ln) of `CUGCAGCAAUAUUACGCGAA` ?
result: -3.31

query: Could you tell me which self-splicing fitness (ln) is on file for `CACGAGCAAUAUUACGGUGA` ?
result: -3.17

query: # self-splicing fitness (ln) lookup, item `GCUCAGCAAUAUUACGAUGA`
result: -2.09

query: Which value of self-splicing fitness (ln) has been reported for `CAUGAGCAAUAUUACGGUAG` in the records?
result: -2.01

query: So what's the measured self-splicing fitness (ln) for this one? `GACUAGCAAUAUUACGAUAA`
result: -0.678

query: Look up self-splicing fitness (ln): `AAAAAGCAAUAUUACGCAAU`
result: -0.871

query: Suppose we examine the sequence `UGCAAGCAAUAUUACGAGUU` ; what self-splicing fitness (ln) value has been reported?
result: -1.88

query: Fill in the blank: the reported self-splicing fitness (ln) of `GCUUAGCAAUAUUACGCGUG` is ____.
result: -1.74

query: # input sequence: `GACAAGCAAUAUUACGCACG` ; wanted: its self-splicing fitness (ln)
result: -2.2

query: Dear colleague, I am looking for the recorded self-splicing fitness (ln) of the following sequence: `AAAGAGCAAUAUUACGCCCU`
result: -2.57

query: Fill blank: measured self-splicing fitness (ln) of the sequence `AGGGAGCAAUAUUACGGGUC` is ____.
result: -4.05

query: Quick one: self-splicing fitness (ln) of `UCCAAGCAAUAUUACGUGUC` ?
result: -3.42

query: Value lookup for self-splicing fitness (ln); key = `UGACAGCAAUAUUACGCCAC`
result: -3.66

---

method.summary: self-splicing fitness, log relative to wild type (ln ratio); higher = more splicing; Tetrahymena group I intron in knt gene, E. coli kanamycin selection, DiMSum; sequences stand for … in CUCUCU…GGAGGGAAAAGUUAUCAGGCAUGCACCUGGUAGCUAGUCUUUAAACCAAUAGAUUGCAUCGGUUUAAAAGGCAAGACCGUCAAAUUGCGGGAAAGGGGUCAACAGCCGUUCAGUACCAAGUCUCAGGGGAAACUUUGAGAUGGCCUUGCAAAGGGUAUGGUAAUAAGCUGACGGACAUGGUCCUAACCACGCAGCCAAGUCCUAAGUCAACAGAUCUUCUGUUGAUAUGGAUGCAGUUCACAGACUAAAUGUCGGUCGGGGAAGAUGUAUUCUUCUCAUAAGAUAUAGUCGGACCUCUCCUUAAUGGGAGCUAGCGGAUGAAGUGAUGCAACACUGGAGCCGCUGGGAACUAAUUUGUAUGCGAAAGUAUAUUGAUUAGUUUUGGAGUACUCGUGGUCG
test.settings: 30 °C
attribute.measured: self-splicing fitness (ln)

query: Any idea what its self-splicing fitness (ln) is? The sequence is `GCAAAGCAAUAUUACGGUCA`
result: -1.12

query: Which self-splicing fitness (ln) reading was recorded for the sequence `UACUAGCAAUAUUACGCCUA` ?
result: -0.895

query: Given `GUAAAGCAAUAUUACGUACU` , state its recorded self-splicing fitness (ln).
result: -1.01

query: Param item = `ACGGAGCAAUAUUACGGUAA` ; retrieve measured self-splicing fitness (ln).
result: -2.95

query: What does the data say about its self-splicing fitness (ln)? Entry: `GGGAAGCAAUAUUACGGCGG`
result: -1.2

query: Need self-splicing fitness (ln), item `ACAAAGCAAUAUUACGCAGG`
result: -1.47

query: What value of measured self-splicing fitness (ln) is listed for `UAGUAGCAAUAUUACGUGAU` ?
result: -3.84

query: Reported self-splicing fitness (ln), sequence `AUAAAGCAAUAUUACGGCAG` : ____
result: -0.699

query: Bench note: what self-splicing fitness (ln) did `AACAAGCAAUAUUACGUGAG` show?
result: -1.74

query: Could you share which self-splicing fitness (ln) value was measured for `CUCAAGCAAUAUUACGCCAA` ?
result: -3.55

query: Value lookup for self-splicing fitness (ln); key = `UUAUAGCAAUAUUACGCGAC`
result: -2.5

query: Value lookup for self-splicing fitness (ln); key = `UGGAAGCAAUAUUACGAGCG`
result: 0.103

query: I would be grateful if you could share the reported self-splicing fitness (ln) for `GUCAAGCAAUAUUACGCGUC` .
result: -2.99

query: Need self-splicing fitness (ln), item `CCGUAGCAAUAUUACGGUGA`
result: -3.66

query: Give the measured self-splicing fitness (ln) of `CGGAAGCAAUAUUACGGCCU` .
result: 0.133

query: Item `CUUUAGCAAUAUUACGGUAC` has what recorded self-splicing fitness (ln)?
result: -2.49

query: Endpoint output: self-splicing fitness (ln) of `CUCAAGCAAUAUUACGGGGG` . Value?
result: -4.01

query: Give its self-splicing fitness (ln) value. Item: `CACAAGCAAUAUUACGGGAC`
result: -3.48

query: Could you share which self-splicing fitness (ln) value was measured for `AUGAAGCAAUAUUACGGAGG` ?
result: -2.82

query: Requested read-out: self-splicing fitness (ln). Entry: `AAUCAGCAAUAUUACGCAAA`
result: -0.0279

query: Return reported self-splicing fitness (ln); argument: `AUUAAGCAAUAUUACGAAGU`
result: -2.77

query: May I ask what self-splicing fitness (ln) has been recorded for `UGCAAGCAAUAUUACGAGUC` ?
result: -2.87

query: # query: self-splicing fitness (ln) of entry `CAAAAGCAAUAUUACGUACU`
result: -2.74

query: Look up self-splicing fitness (ln): `CGGCAGCAAUAUUACGGUUG`
result: -2.93

query: Entry under review: `UAUCAGCAAUAUUACGGGAU` . Reported self-splicing fitness (ln)?
result: -3.78

query: Fill in: self-splicing fitness (ln) of `CUCCAGCAAUAUUACGCUCU` is ___
result: -3.59

query: For the sequence shown here, `AAACAGCAAUAUUACGGGUC` , give the reported self-splicing fitness (ln).
result: -3.47

query: Entry `ACGAAGCAAUAUUACGUACU` : reported self-splicing fitness (ln) = ?
result: -0.484
